All figures here come from patent US4562211A.

Listing of recorded LD50 by entry.
Assay: Acute toxicity in mice, LD50 (Litchfield-Wilcoxon)
Conditions: mouse, in vivo, ip
Description: The compounds have been tested in mice for antidepressant, sedative, anticonvulsant and anticholinergic activity. The compounds were administered intraperitoneally and the activities of the compounds were compared with those of Amitriptyline. LD50 was calculated by Litchfield-Wilcoxon method.
Counter-ions that a name gives are not always drawn.
Quantity measured: LD50

>>> print(df.to_string())
                                   compound  quantity_measured   reported_result
0                CNCCCCOc1ccccc1Cc1ccccc1OC               LD50         600 mg/kg
1                 CNCCCCOc1ccccc1Cc1ccccc1O               LD50  600 to 700 mg/kg
2            Cc1cccc(Cc2ccccc2)c1OCCCCN(C)C               LD50  500 to 700 mg/kg
3  CN(C)CCC=C1c2ccccc2CCc2ccccc21 [Amitriptyline, reference compound]               LD50         300 mg/kg
4  CNCCCCOc1c(C)cccc1Cc1ccccc1 [No. 1, hydrochloride]               LD50  500 to 700 mg/kg
5          Cc1ccc(OCCCCN(C)C)c(Cc2ccccc2)c1               LD50  500 to 700 mg/kg
